# measured_target: Human Placenta DPP-IV (Homo sapiens, UniProt P27487)
# Construct: from tissue; host or cells: human placenta
# Sequence (P27487 whole entry): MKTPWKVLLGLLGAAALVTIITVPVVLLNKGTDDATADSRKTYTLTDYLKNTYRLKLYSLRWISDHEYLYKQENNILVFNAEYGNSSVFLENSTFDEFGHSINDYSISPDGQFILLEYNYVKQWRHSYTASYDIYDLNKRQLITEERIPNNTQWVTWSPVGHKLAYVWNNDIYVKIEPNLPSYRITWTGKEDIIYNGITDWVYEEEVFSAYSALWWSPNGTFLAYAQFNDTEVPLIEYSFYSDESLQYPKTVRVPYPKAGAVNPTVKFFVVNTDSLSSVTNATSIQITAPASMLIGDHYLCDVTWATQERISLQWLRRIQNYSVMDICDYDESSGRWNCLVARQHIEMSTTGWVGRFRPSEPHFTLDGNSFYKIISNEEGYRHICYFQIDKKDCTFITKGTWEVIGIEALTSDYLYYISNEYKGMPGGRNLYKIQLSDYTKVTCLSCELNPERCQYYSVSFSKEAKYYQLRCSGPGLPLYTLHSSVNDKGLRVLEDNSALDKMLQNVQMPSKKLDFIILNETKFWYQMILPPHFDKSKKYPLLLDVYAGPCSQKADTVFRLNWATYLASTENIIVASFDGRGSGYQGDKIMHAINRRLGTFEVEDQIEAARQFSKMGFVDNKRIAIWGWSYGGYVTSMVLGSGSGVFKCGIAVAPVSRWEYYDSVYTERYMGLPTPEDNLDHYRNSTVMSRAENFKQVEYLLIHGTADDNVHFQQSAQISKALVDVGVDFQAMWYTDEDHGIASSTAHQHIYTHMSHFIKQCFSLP
# test: Inhibition of DPP-IV by peptidyl phosphonates, incubation method
# Format: biochemical
# experimental_conditions: [I] 0.12 mM; 2 min incubation; 0.05 M Tris pH 7.8, 5% Me2SO, 23° C.; substrate TFA.Ala-Pro-AFC 0.190 mM
measured_property: % Inhibition 2 min
Please report the result as a number followed by the unit.

Completed entries (count: 6):
{"compound": "CC(=O)O.C[C@H](N)C(=O)N1CCCCC1P(=O)(O)Oc1ccccc1 (some centres unmarked) [Compound 8]", "% Inhibition 2 min": "0%"}
{"compound": "C[C@H](N)C(=O)N1CCCC1P(=O)(Oc1ccc(Cl)cc1)Oc1ccc(Cl)cc1.Cl (some centres unmarked) [Compound 12]", "% Inhibition 2 min": "0%"}
{"compound": "C[C@H](N)C(=O)N1CCCCC1P(=O)(Oc1ccc(Cl)cc1)Oc1ccc(Cl)cc1.Cl (some centres unmarked) [Compound 13]", "% Inhibition 2 min": "88%"}
{"compound": "CC(=O)O.C[C@H](N)C(=O)N1CCCCC1P(=O)(Oc1ccccc1)Oc1ccccc1 (some centres unmarked) [Compound 7]", "% Inhibition 2 min": "0%"}
{"compound": "Cl.Cl.NCCCC[C@H](N)C(=O)N1CCCCC1P(=O)(Oc1ccccc1)Oc1ccccc1 (some centres unmarked) [Compound 11]", "% Inhibition 2 min": "35%"}
{"compound": "C[C@H](N)C(=O)N1CCCC1P(=O)(Oc1ccccc1)Oc1ccccc1.Cl (some centres unmarked) [Compound 6]", "% Inhibition 2 min": "0%"}

Would you kindly share the measured % Inhibition 2 min for Br.Br.NCCCC[C@H](N)C(=O)N1CCCC1P(=O)(Oc1ccccc1)Oc1ccccc1 (some centres unmarked) [Compound 10] ?
0%

Would you kindly share the measured % Inhibition 2 min for Br.N[C@@H](Cc1ccccc1)C(=O)N1CCCC1P(=O)(Oc1ccccc1)Oc1ccccc1 (some centres unmarked) [Compound 9] ?
0%

* * *

# test: Half-lives for spontaneous hydrolysis of inhibitors in buffer
# Format: physicochemical
# experimental_conditions: 0.05 M Tris, pH 7.8 buffer, 8% Me2SO, 23° C.
# t1/2, half-life for hydrolysis annotations
Answer format: numeric, h implied, no suffix.

{"compound": "C[C@H](N)C(=O)N1CCCC1P(=O)(Oc1ccccc1)Oc1ccccc1.Cl (stereo partly shown)", "measured_property": "t1/2, half-life for hydrolysis", "unit_tag": "h", "observed_result": 23.1}
{"compound": "C[C@H](N)C(=O)N1CCCC1P(=O)(Oc1ccc(Cl)cc1)Oc1ccc(Cl)cc1.Cl (stereo partly shown)", "measured_property": "t1/2, half-life for hydrolysis", "unit_tag": "h", "observed_result": 5.3}
{"compound": "Br.Br.NCCCC[C@H](N)C(=O)N1CCCC1P(=O)(Oc1ccccc1)Oc1ccccc1 (stereo partly shown)", "measured_property": "t1/2, half-life for hydrolysis", "unit_tag": "h", "observed_result": 52}

Could you now consider this next compound?
Would you kindly share the measured t1/2, half-life for hydrolysis for C[C@H](N)C(=O)N1CCCCC1P(=O)(Oc1ccc(Cl)cc1)Oc1ccc(Cl)cc1.Cl (stereo partly shown) ?
67

* * *

# measured_target: DPP-IV (Homo sapiens)
# test: Stability of inhibited DPP-IV
# experimental_conditions: inhibitor 0.042-0.42 mM; pH 7.8 buffer; incubation for 1 h
measured_property: DPP-IV enzyme activity found after incubation with inhibitor

{"compound": "C[C@H](N)C(=O)N1CCCCC1P(=O)(Oc1ccc(Cl)cc1)Oc1ccc(Cl)cc1.Cl (stereo partly shown) [Compound 13]", "observed_result": "no enzyme activity"}
{"compound": "CC(=O)O.C[C@H](N)C(=O)N1CCCCC1P(=O)(Oc1ccccc1)Oc1ccccc1 (stereo partly shown) [Compound 7]", "observed_result": "no enzyme activity"}
{"compound": "C[C@H](N)C(=O)N1CCCCC1P(=O)(Oc1ccc(F)cc1)Oc1ccc(F)cc1.Cl (stereo partly shown) [Compound 14]", "observed_result": "no enzyme activity"}
{"compound": "C[C@H](N)C(=O)N1CCCC1P(=O)(Oc1ccccc1)Oc1ccccc1.Cl (stereo partly shown) [Compound 6]", "observed_result": "30%"}

* * *

# test: Half-lives for spontaneous hydrolysis of inhibitors in buffer
# Assay type: physicochemical
# experimental_conditions: 0.05 M Tris, pH 7.8 buffer, 8% Me2SO, 23° C.
# t1/2, half-life for hydrolysis annotations

{"compound": "C[C@H](N)C(=O)N1CCCCC1P(=O)(Oc1ccc(F)cc1)Oc1ccc(F)cc1.Cl (stereo partly drawn)", "t1/2, half-life for hydrolysis": "> 68 h"}

Would you kindly share the measured t1/2, half-life for hydrolysis for CC(=O)O.C[C@H](N)C(=O)N1CCCCC1P(=O)(Oc1ccccc1)Oc1ccccc1 (stereo partly drawn) ?
> 72 h

Would you kindly share the measured t1/2, half-life for hydrolysis for Cl.Cl.NCCCC[C@H](N)C(=O)N1CCCCC1P(=O)(Oc1ccccc1)Oc1ccccc1 (stereo partly drawn) ?
> 48 h
